Tested on: A2780
run description: Antiproliferative activity against human A2780 cells after 72 hrs by cell-titer-glo assay
Format: functional, cell-based
reported conditions: A2780, 72 h
pIC50: −log10 of the molar value.
pIC50 reference
readout name: pIC50

> print(dat)
                                given.smiles  observed
 1  CNC(=O)c1nn(C)c2c1CCc1cnc(NC3CCCCC3)nc1-2      5.07
 2  CN1CCN(c2cccc(CNc3ncc4c(n3)-c3c(c(C(N)=O)nn3C)CC4)c2)CC1      6.04
 3          Cn1nc(C(N)=O)c2c1-c1nc(N)ncc1CC2      5.66
 4  COc1ccc(-n2nc(C(N)=O)c3c2-c2nc(NC4CCCC4)ncc2CC3)cc1      6.25
 5  CCN1CCC(Nc2ncc3c(n2)-c2c(c(C(N)=O)nn2C)CC3)CC1      5.61
 6       Cn1nc(C(N)=O)c2c1-c1nc(NCCO)ncc1CC2      5.59
 7  CNC(=O)c1nn(C2CCN(C)CC2)c2c1CCc1cnc(NC3CCCC3)nc1-2      5.80
 8  Cn1nc(C(N)=O)c2c1-c1nc(NC3CCCCC3)ncc1CC2      6.39
 9  CN1CCN(C(=O)c2nn(C)c3c2CCc2cnc(NC4CCCC4)nc2-3)CC1      6.30
10   Cn1nc(C(N)=O)c2c1-c1nc(NC3CCCC3)ncc1CC2      6.61
11  CN(O)C(=O)c1nn(C)c2c1CCc1cnc(NC3CCCC3)nc1-2      5.26
12  Cn1nc(C(=O)N(O)Cc2ccccc2)c2c1-c1nc(NC3CCCC3)ncc1CC2      5.21
13  NC(=O)c1nn(Cc2ccccc2)c2c1CCc1cnc(NC3CCCC3)nc1-2      6.08
14  CN1CCC(Nc2ncc3c(n2)-c2c(c(C(N)=O)nn2C)CC3)CC1      5.70
15  CC(=O)N1CCC(Nc2ncc3c(n2)-c2c(c(C(N)=O)nn2C)CC3)CC1      6.70
16  CC(=O)N1CCC(n2nc(C(N)=O)c3c2-c2nc(NC4CCCC4)ncc2CC3)CC1      7.15
17  NC(=O)c1nn(CC(F)(F)F)c2c1CCc1cnc(NC3CCCC3)nc1-2      6.43
18  Cn1nc(C(N)=O)c2c1-c1nc(NCc3ccncc3)ncc1CC2      5.91
19  CNC(=O)c1nn(C)c2c1CCc1cnc(NC3CCN(C(=O)c4ccccc4)CC3)nc1-2      6.09
20  Cn1nc(C(N)=O)c2c1-c1nc(NCc3ccccc3)ncc1CC2      6.03
21  COc1ccc(CNc2ncc3c(n2)-c2c(c(C(N)=O)nn2C)CC3)cc1      5.38
22  Cn1nc(C(N)=O)c2c1-c1nc(NCCN3CCCCC3)ncc1CC2      5.12
